target_entity: HCV genotype 1b (BK) NS3 modified enzyme with a R155K mutation (Hepatitis C virus genotype 1b, UniProt P26663, R1181K)
Construct: HCV genotype 1b (BK) NS3 modified enzyme
protocol_text: HCV NS3 protease time-resolved fluorescence (TRF) assay, genotype 1b R155K
Format: biochemical
experimental_context: Ki 1b R155K, first of two values printed in the cell (not explained)
Structures can show the parent of a compound that is named as a salt.
Reported pKi values follow for various compounds
Interpret pKi as the negative base-10 log of the concentration measured in mol/L.

- C=C[C@@H]1C[C@]1(NC(=O)[C@@H]1C[C@@H]2CN1C(=O)[C@H](C1CCCCC1)NC(=O)O[C@@H]1C[C@H]1CCCCCc1c(nc3ccccc3c1OC1CC3CCC(C1)N3)O2)C(=O)NS(=O)(=O)C1(C)CC1 (some centres unmarked): 10.85

Please examine the following record next.
Problem: Any idea what pKi was measured for C=C[C@@H]1C[C@]1(NC(=O)[C@@H]1C[C@@H]2CN1C(=O)[C@H](C1CCCCC1)NC(=O)O[C@@H]1C[C@H]1CCCCCc1c(nc3ccccc3c1OCCCNC1CC1)O2)C(=O)NS(=O)(=O)C1(C)CC1 [Example 241, formate] ?
Solution: 10.68
